# Species on record: Mus musculus
# assay: Hypnotic activity was measured as dose which causes loss of righting reflex for a minimum period of 30s in 50% of mice
# Assay type: functional
We label by threshold. Values of HD50 strictly beneath 80 mg/kg are 1. Values of 80 mg/kg and up are -1.

- smiles_structure: "Cc1cc(C)c(C(C)C)c(O)c1C(C)C"
  classification: -1
- smiles_structure: "Cc1cc(C(C)C)c(O)c(C(C)C)c1"
  classification: 1
- smiles_structure: "CCc1ccc(O)c(C(C)C)c1"
  classification: 1
- smiles_structure: "Oc1ccccc1"
  classification: 1

###

# assay: Acute toxicity measured as median lethal dose in mice; […]
# Format: organism-based
# condition: mouse, in vivo
observation_type: LD50 (mg/kg)

- smiles_structure: "Cc1cc(C(C)(C)C)ccc1O"
  observation_type: "LD50"
  observed_measurement: 180

###

# assay: Acute toxicity measured as median lethal dose in mice; Range is 120-140
# Format: organism-based
# condition: mouse, in vivo
observation_type: LD50 (mg/kg)

- compound: "CC(C)c1cccc(C2CC2)c1O"
  observed_measurement: 120
- compound: "CCC(C)c1cccc(C2CC2)c1O (stereo not drawn)"
  observed_measurement: 120
- compound: "Cc1cccc(C(C)(C)C)c1O"
  observed_measurement: 120

###

# assay: Acute toxicity measured as median lethal dose in mice; Range is 80-90
# Format: organism-based
# condition: mouse, in vivo
observation_type: LD50 (mg/kg)

- molecule: "CCCC(C)C1(CC)C(=O)[N-]C(=S)NC1=O.[Na+] (stereo in doubt; form 2) [THIOPENTAL SODIUM]"
  observation_type: "LD50"
  observed_measurement: 80

###

# assay: Acute toxicity measured as median lethal dose in mice; Range is 160-180
# Format: organism-based
# condition: mouse, in vivo
The following compounds are listed with their measured LD50 values.

- compound: "Cc1cc(C)c(C(C)C)c(O)c1C(C)C"
  u: "mg/kg"
  LD50: 160
- compound: "CCCC(C)c1cccc(C(C)CCC)c1O (configuration not stated)"
  u: "mg/kg"
  LD50: 160

###

# assay: Acute toxicity measured as median lethal dose in mice; Range is 40-60
# Assay type: organism-based
# condition: mouse, in vivo
observation_type: LD50

- molecule: "CCC(C)c1ccc(O)cc1 (configuration not stated)"
  observed_measurement: "40 mg/kg"
- molecule: "CC(C)c1ccc(O)cc1"
  observed_measurement: "40 mg/kg"

###

# assay: Acute toxicity measured as median lethal dose in mice; Range is 140-160
# Assay type: organism-based
# condition: mouse, in vivo

- smiles_structure: "Cc1cccc(C2CCCCC2)c1O"
  LD50 [mg/kg]: 140

###

# assay: Acute toxicity measured as median lethal dose in mice
# Type: organism-based
# condition: mouse, in vivo
Param label: returns 1 when LD50 < 100 mg/kg, returns 0 otherwise, including exact equality.

- compound: "CCCCc1c(C)ccc(C(C)C)c1O"
  classification: 0
- compound: "CCc1c(C)cc(C)c(CC)c1O"
  classification: 0
- compound: "CCC(C)c1ccc(O)c(C(C)CC)c1 (stereo unspecified)"
  classification: 0
- compound: "CCc1ccc(O)c(C(C)C)c1"
  classification: 0
- compound: "CCCC(C)c1cccc(C(C)C)c1O (stereo unspecified)"
  classification: 1
- compound: "CC(C)(C)c1cccc(C(C)(C)C)c1O"
  classification: 0
- compound: "CC(C)c1ccc(O)c(C(C)C)c1"
  classification: 0
- compound: "CCC(C)c1cccc(C(C)C)c1O (stereo unspecified)"
  classification: 1
- compound: "C=CCC1(C(C)C#CCC)C(=O)N=C([O-])N(C)C1=O.[Na+] (stereo unspecified) [METHOHEXITAL SODIUM]"
  classification: 1
- compound: "CCC(C)c1cccc(C(C)CC)c1O (stereo unspecified)"
  classification: 1
- compound: "Cc1cccc(C(C)C)c1O"
  classification: 1
- compound: "CCCCC(C)c1cccc(CCC)c1O (stereo unspecified)"
  classification: 0
- compound: "CCCc1cccc(C(C)C)c1O"
  classification: 1
- compound: "CCc1cccc(C(C)CC)c1O (stereo unspecified)"
  classification: 1
- compound: "CNC1(c2ccccc2Cl)CCCCC1=O.Cl (stereo unspecified) [KETAMINE HYDROCHLORIDE]"
  classification: 1
- compound: "CCC(C)c1cc(C)cc(C(C)CC)c1O (stereo unspecified)"
  classification: 0
- compound: "CCCc1cccc(C(C)CC)c1O (stereo unspecified)"
  classification: 0
- compound: "CCCCc1cccc(C(C)CC)c1O (stereo unspecified)"
  classification: 0
